# assay target: T1, Human TNFa N-his trimers (His-tagged TNF, produced at ESBATech) (human, UniProt P01375 77-233)
# T1 construct: Captured as trimers on a Ni-NTA sensor chip by the N-terminal His tags in the Biacore assay of the general methods; also called human TNFα; human TNF alpha; not shown: N-terminal His tag
# T1 sequence (P01375 77-233 limits assumed): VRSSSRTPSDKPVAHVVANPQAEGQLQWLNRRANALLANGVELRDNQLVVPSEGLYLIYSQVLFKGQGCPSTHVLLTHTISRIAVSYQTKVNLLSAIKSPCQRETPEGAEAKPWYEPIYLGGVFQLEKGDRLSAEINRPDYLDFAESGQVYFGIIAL
# test summary: SPR (BIAcore T100), His-tagged human TNF captured on NTA chip, scFv as analyte
The binders listed here are annotated with their Kd.
Write the number in nM without appending the unit.

Please review the entries below; each comes with its answer.
{"columns": ["binder", "units of measure", "Kd"],
 "data": [
  ["EP6_min (scFv, scFv NH2-VL-(GGGGS)4-VH-COOH; also called 673) scFv: EIVMTQSPSTLSASVGDRVIITCQASESIYSGLAWYQQKPGKAPKLLIYQASTLASGVPSRFSGSGSGAEFTLTISSLQPDDFATYYCQQGFGTSNVENPFGQGTKLTVLGGGGGSGGGGSGGGGSGGGGSEVQLVESGGGLVQPGGSLRLSCAASGFSLSRYGVSWVRQAPGKGLEWVSTIGEAGRAYYANWARSRFTISRDNSKNTLYLQMNSLRAEDTAVYYCAKGEVFNNGWGAFNIWGQGTLVTVSS", "nM", 106],
  ["EP43_max (scFv, scFv NH2-VL-(GGGGS)4-VH-COOH; also called 676) scFv: EIVMTQSPSTLSASVGDRVIIKCQASQSISDWLAWYQQKPGKAPKLLIYGASRLASGFPSRFSGSGSGAEFTLTISGLEPADFATYYCQQGWSDSYVDNLFGQGTKLTVLGGGGGSGGGGSGGGGSGGGGSEVQLVESGGGLVQPGGSLRLSCTVSGFSLSSGAMSWVRQAPGKGLEWVGVIISSGATYYASWAKGRFTISKDTSKNTVYLQMNSLRAEDTAVYYCARGGPDDSNSMGTFDPWGQGTLVTVSS", "nM", 0.251],
  ["EP15_max (scFv, scFv NH2-VL-(GGGGS)4-VH-COOH; also called 1074) scFv: EIVMTQSPSTLSASVGDRVIITCQASENIYTSLAWYQQKPGKAPKLLIYSASTLASGVPSRFSGSGSGTEFTLTISSLQPDDFATYYCQQGFATSNVENPFGQGTKLTVLGGGGGSGGGGSGGGGSGGGGSEVQLVESGGGSVQPGGSLRLSCTVSGFSLSRYGVSWVRQAPGKGLEWVGAIGETGRAYYANWAKSRSTISRDTSKNTVYLQMNSLRAEDTATYYCARGEEFNNGWGAFNIWGQGTTVTVSS", "nM", 1.48],
  ["EP42_max (scFv, scFv NH2-VL-(GGGGS)4-VH-COOH; also called 1077) scFv: EIVMTQSPSTLSASVGDRVIITCQSTESVYKNNYLAWYQQKPGKAPKLLIYDASTLASGVPSRFSGSGSGTEFTLTISSLQPDDFATYYCAGYYRSGFGTANGSFGQGTKLTVLGGGGGSGGGGSGGGGSGGGGSEVQLVESGGGSVQPGGSLRLSCTVSGIDLRNDAISWVRQAPGKGLEWVSYISDWGIKYYASWVKGRFTISKDTSKNTVYLQMNSLRAEDTATYYCARGAPGAGDNGIWGQGTTVTVSS", "nM", 3.46]
]}

Turning to the following binder.
So, EP34_max (scFv, scFv NH2-VL-(GGGGS)4-VH-COOH; also called Epi34max; 791) scFv: EIVMTQSPSTLSASLGDRVIITCQSSQSVYGNIWMAWYQQKSGKAPKLLIYQASKLASGVPSRFSGSGSGAEFSLTISSLQPDDFATYYCQGNFNTGDRYAFGQGTKLTVLGGGGGSGGGGSGGGGSGGGGSEVQLVESGGGLVQPGGSLRLSCTASGFTISRSYWICWVRQAPGKGLEWVACIYGDNDITPLYANWAKGRFPVSTDTSKNTVYLQMNSLRAEDTAVYYCARLGYADYAYDLWGQGTLVTVSS ? Its Kd was 0.0286
